This section presents molecules with their documented IC50 values.
Tested on: LNCaP-Vancouver prostate cells
TEST_NAME: In vitro LNCaP Vancouver prostate cell proliferation assay in lipid reduced medium
Type: cell-based
MEASUREMENT_PARAMETERS: read-out: pIC50 LNCaP_Vancouver prostate cell (converted)
PROPERTY_NAME: IC50 (nM)

In [3]: df
Out[3]:
                                    molecule               system_under_test  quantity_unit  endpoint_value
 0  Cc1cc(-c2ccc3c(cnn3C)c2)ccc1C1=NC2(CC2)C(=O)N1C[C@@H]1CCN(C(=O)C2CC2)C1  LNCaP-Vancouver prostate cells             nM             295
 1  N#Cc1cc2cc(-c3ccc(C4=NC5(CC5)C(=O)N4C[C@@H]4CCN(C(=O)C5CC5)C4)cc3)ccc2o1  LNCaP-Vancouver prostate cells             nM            2400
 2  Cc1c(-c2ccc(C3=NC4(CC4)C(=O)N3CC3CN(C(=O)C4CC4)C3)cc2)ccc2c1cnn2C  LNCaP-Vancouver prostate cells             nM            1000
 3  Cc1nc2cc(-c3ccc(C4=NC5(CC5)C(=O)N4CC4CN(C(=O)C5CC5)C4)c(F)c3)ccc2s1  LNCaP-Vancouver prostate cells             nM            1480
 4  Cn1nc(CO)c2cc(-c3ccc(C4=NC5(CC5)C(=O)N4CC4CN(C(=O)C5CC5)C4)c(F)c3)ccc21  LNCaP-Vancouver prostate cells             nM            4790
 5  Nc1cc2cc(-c3ccc(C4=NC5(CC5)C(=O)N4C[C@@H]4CCN(C(=O)C5CC5)C4)cc3)ccc2cn1  LNCaP-Vancouver prostate cells             nM             302
 6  O=C(C1CC1)N1CC(CN2C(=O)C3(CC3)N=C2c2ccc(-c3ccc4ccccc4c3)cc2F)C1  LNCaP-Vancouver prostate cells             nM             214
 7  Cc1cc(-c2cccc(NS(=O)(=O)C3CC3)c2)ccc1C1=NC2(CC2)C(=O)N1CC1CN(C(=O)C2CC2)C1  LNCaP-Vancouver prostate cells             nM            5010
 8  Cc1cc(-c2ccc3oc(C#N)cc3c2)ccc1C1=NC2(CC2)C(=O)N1C[C@@H]1CCN(C(=O)C2CC2)C1  LNCaP-Vancouver prostate cells             nM            1120
 9  Cn1cc(-c2ccc(-c3ccc(C4=NC5(CCOC5)C(=O)N4C[C@@H]4CCN(C(=O)[C@H]5CCCO5)C4)cc3)cc2)cn1 (stereo partly shown)  LNCaP-Vancouver prostate cells             nM            3310
10  Cc1cc(-c2ccc(-c3ccnn3C)cc2)ccc1C1=NC2(CC2)C(=O)N1C[C@@H]1CCN(C(=O)C2(C)CC2)C1  LNCaP-Vancouver prostate cells             nM             562
11  O=C(N1CC(CN2C(=O)C3(CC3)N=C2c2ccc(-c3ccc4cc(Cl)ccc4c3)cc2F)C1)C1(O)CC1  LNCaP-Vancouver prostate cells             nM            50.1
12  Nc1nccc2cc(-c3ccc(C4=NC5(CC5)C(=O)N4C[C@@H]4CCN(C(=O)C5CC5)C4)cc3)ccc12  LNCaP-Vancouver prostate cells             nM             288
13  Cn1cc2cc(-c3ccc(C4=NC5(CC5)C(=O)N4CC4CN(C(=O)C5CC5)C4)cc3)ccc2n1  LNCaP-Vancouver prostate cells             nM            6030
14  Cn1ncc2cc(-c3ccc(C4=NC5(CCCC5)C(=O)N4C[C@@H]4CCN(C(=O)C5CC5)C4)c(F)c3)ccc21  LNCaP-Vancouver prostate cells             nM             646
15  Cn1cc(-c2ccc(-c3ccc(C4=NC5(CCOC5)C(=O)N4C[C@@H]4CCN(C(=O)C5CC5)C4)cc3)cc2)cn1 (stereo partly shown)  LNCaP-Vancouver prostate cells             nM            1780
16  O=C1CCc2cc(-c3ccc(C4=NC5(CC5)C(=O)N4C[C@@H]4CCN(C(=O)C5CC5)C4)cc3)ccc2N1  LNCaP-Vancouver prostate cells             nM            3980

====

This section presents compounds with their documented IC50 values.
SYSTEM_UNDER_TEST: Fatty Acid Synthase Keto-reductase Domain (FASN KR) (Homo sapiens, UniProt P49327)
PROPERTY_NAME: IC50 (nM)

>>> df
                                    compound  property_name  endpoint_value
 0  COCCN1CCC2(CC1)N=C(c1ccc(-c3ccc4[nH]ccc4c3)cc1)N(C[C@@H]1CCN(C(=O)C3CC3)C1)C2=O           IC50             129
 1  N#Cc1cc2cc(-c3ccc(C4=NC5(CC5)C(=O)N4CC4CN(C(=O)C5CC5)C4)cc3)ccc2o1           IC50             372
 2  Cn1ncc2ccc(-c3ccc(C4=NC5(CC5)C(=O)N4C[C@@H]4CCN(C(=O)C5CC5)C4)cc3)cc21           IC50             120
 3  Cn1nccc1-c1ccc(-c2ccc(C3=NC4(CC4)C(=O)N3CC3CN(C(=O)C4(C)CC4)C3)c(F)c2)cc1           IC50             776
 4  O=C(C1CC1)N1CC(CN2C(=O)C3(CC3)N=C2c2ccc(-c3ccc4[nH]ccc4c3)cc2)C1           IC50            42.7
 5  Cn1ncc2cc(-c3ccc(C4=NC5(CC5)C(=O)N4C[C@@H]4CCN(C(=O)C5(O)CC5)C4)c(F)c3)ccc21           IC50            40.7
 6  CC1(C(=O)N2CC(CN3C(=O)C4(CC4)N=C3c3ccc(-c4ccc5cc(F)ccc5c4)cc3F)C2)CC1           IC50            41.7
 7  Cc1cc(-c2ccc3cc[nH]c3c2)ccc1C1=NC2(CC2)C(=O)N1CC1CN(C(=O)C2CC2)C1           IC50            69.2
 8  O=C(C1CC1)N1CC[C@@H](CN2C(=O)C3(CC3)N=C2c2ccc(-c3ccc4cnc(F)cc4c3)cc2)C1           IC50             263
 9  Cc1cc(-c2ccc3c(cnn3C)c2)ccc1C1=NC2(CC2)C(=O)N1CC1CN(C(=O)C2CCCO2)C1 (stereo in doubt) [compound 206]           IC50            75.9
10  O=C(N1CCCC1)N1CC[C@@H](CN2C(=O)C3(CCOC3)N=C2c2ccc(-c3ccc4cccnc4c3)cc2)C1 (stereo partly shown)           IC50            1620
11  Cn1nc(Cl)c2ccc(-c3ccc(C4=NC5(CC5)C(=O)N4CC4CN(C(=O)C5CC5)C4)c(F)c3)cc21           IC50            1450
12  O=C(C1CC1)N1CC[C@@H](CN2C(=O)C3(CC3)N=C2c2ccc(-c3ccc4occc4c3)cc2F)C1           IC50            26.3

====

SYSTEM_UNDER_TEST: hFASN enzyme (full length) (Homo sapiens)
Construct: 10 μL hFASN enzyme (full length, 300 ng, purified in house); made in house
Sequence (P49327 whole entry): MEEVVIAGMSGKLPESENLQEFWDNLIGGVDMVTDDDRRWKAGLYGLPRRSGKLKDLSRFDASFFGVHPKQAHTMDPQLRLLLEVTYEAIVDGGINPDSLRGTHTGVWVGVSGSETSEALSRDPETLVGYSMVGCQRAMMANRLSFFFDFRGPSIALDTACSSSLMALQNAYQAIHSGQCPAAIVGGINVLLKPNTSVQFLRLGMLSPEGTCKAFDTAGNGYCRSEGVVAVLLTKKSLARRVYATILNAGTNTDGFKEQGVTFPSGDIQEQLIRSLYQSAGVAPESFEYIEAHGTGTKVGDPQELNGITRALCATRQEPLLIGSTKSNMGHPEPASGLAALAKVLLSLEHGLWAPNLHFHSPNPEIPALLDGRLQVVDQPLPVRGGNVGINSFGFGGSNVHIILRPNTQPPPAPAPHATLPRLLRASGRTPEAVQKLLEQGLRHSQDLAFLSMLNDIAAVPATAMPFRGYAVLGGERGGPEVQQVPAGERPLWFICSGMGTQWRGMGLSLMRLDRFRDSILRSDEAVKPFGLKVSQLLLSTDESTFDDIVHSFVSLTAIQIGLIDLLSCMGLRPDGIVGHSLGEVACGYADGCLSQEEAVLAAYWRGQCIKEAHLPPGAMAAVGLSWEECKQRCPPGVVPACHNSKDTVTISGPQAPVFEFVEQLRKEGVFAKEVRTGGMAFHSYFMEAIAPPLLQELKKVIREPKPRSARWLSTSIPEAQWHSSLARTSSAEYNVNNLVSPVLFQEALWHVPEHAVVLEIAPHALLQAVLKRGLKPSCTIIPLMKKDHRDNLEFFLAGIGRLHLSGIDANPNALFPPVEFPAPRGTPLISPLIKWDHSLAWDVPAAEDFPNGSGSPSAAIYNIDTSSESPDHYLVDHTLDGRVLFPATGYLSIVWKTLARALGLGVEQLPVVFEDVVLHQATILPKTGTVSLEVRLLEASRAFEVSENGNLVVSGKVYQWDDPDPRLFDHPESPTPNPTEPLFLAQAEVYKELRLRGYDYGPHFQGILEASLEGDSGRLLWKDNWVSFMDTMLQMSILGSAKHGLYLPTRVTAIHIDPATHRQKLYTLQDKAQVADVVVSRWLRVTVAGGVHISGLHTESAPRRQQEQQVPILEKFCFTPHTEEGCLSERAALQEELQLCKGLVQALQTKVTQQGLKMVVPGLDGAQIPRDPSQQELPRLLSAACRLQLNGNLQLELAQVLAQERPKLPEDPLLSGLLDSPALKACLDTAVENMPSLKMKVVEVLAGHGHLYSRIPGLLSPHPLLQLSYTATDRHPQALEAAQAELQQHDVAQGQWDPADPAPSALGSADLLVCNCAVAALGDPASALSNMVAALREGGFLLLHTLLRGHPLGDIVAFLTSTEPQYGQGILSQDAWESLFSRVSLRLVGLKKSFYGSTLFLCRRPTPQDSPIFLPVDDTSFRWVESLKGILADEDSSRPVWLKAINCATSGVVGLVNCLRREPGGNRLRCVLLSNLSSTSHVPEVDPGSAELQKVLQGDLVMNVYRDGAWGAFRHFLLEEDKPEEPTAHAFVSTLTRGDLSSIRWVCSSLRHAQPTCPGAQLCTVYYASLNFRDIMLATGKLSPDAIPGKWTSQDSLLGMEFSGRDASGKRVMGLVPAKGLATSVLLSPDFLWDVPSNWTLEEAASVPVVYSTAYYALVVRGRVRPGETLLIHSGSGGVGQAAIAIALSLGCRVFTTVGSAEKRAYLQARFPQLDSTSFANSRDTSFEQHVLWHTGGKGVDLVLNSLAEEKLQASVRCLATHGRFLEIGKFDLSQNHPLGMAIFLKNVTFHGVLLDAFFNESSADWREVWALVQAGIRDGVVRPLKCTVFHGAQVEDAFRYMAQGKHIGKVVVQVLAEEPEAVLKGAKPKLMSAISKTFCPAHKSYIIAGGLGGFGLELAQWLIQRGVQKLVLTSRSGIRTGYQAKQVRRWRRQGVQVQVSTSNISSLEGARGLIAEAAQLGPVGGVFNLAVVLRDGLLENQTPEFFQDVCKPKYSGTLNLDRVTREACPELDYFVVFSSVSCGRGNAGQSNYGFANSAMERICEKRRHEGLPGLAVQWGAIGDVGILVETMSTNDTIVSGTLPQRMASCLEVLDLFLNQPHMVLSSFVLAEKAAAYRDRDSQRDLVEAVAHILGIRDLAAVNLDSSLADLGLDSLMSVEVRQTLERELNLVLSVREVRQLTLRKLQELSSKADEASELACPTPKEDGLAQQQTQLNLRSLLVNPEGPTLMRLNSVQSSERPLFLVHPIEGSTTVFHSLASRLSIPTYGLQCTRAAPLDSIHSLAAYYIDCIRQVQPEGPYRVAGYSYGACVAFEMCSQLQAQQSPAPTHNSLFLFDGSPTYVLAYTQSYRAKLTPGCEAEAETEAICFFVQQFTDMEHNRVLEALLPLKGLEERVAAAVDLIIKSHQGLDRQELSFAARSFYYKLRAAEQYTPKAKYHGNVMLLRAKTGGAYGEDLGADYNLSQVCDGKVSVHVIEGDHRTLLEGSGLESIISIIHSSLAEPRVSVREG
TEST_NAME: Fatty Acid Synthase (FASN) inhibition scintillation proximity assay
Type: biochemical
MEASUREMENT_PARAMETERS: read-out: Human FASN % inhibition @ 10 μM, 10 μM test compound
PROPERTY_NAME: inhibition at 10 µM (%)

>>> print(df.to_string())
                   compound_structure_string  quantity_unit  endpoint_value
 0  Cc1cc(C2=NC3(CC3)C(=O)N2CC2CN(C(=O)C3CC3)C2)ccc1-c1ccc2sccc2c1              %              91
 1  Cn1nc(C(N)=O)c2ccc(-c3ccc(C4=NC5(CC5)C(=O)N4C[C@@H]4CCN(C(=O)C5CC5)C4)cc3)cc21              %              92
 2  O=C(N1CCCC1)N1CC(CN2C(=O)C3(CCOCC3)N=C2c2ccc(-c3ccc4cccnc4c3)cc2)C1              %              95
 3  O=C(C1CC1)N1CC[C@@H](CN2C(=O)C3(CC3)N=C2c2ccc(-c3ccc4sccc4c3)cc2)C1              %             100
 4  Cn1ncc2cc(-c3ccc(C4=NC5(CC5)C(=O)N4CC4CN(C(=O)C5(O)CC5)C4)c(Cl)c3)ccc21              %             108
 5  Cc1cc(Cl)c2ccc(-c3ccc(C4=NC5(CC5)C(=O)N4CC4CN(C(=O)C5(C)CC5)C4)c(C)c3)cc2n1              %              65
 6  Cn1nc(C2CC2)c2cc(-c3ccc(C4=NC5(CC5)C(=O)N4C[C@@H]4CCN(C(=O)C5CC5)C4)cc3)ccc21              %              99
 7  O=C(C1CC1)N1CCC(CN2C(=O)C3(CC3)N=C2c2ccc(-c3ccc4cnccc4c3)cc2)CC1              %             101
 8  O=C(C1CC1)N1CC(CN2C(=O)C3(CC3)N=C2c2ccc(-c3ccc4c(cnn4CC4CC4)c3)cc2F)C1              %              92
 9  Cn1cc(-c2ccc(-c3ccc(C4=NC5(CC5)C(=O)N4C[C@H]4CCCN(C(=O)C5CC5)C4)cc3)cc2)cn1              %               1
10  COc1cccc(-c2ccc(C3=NC4(CC4)C(=O)N3C[C@@H]3CCN(C(=O)C4CC4)C3)cc2)c1              %             109
11  Cc1cc(Cl)nc2cc(-c3ccc(C4=NC5(CC5)C(=O)N4CC4CN(C(=O)C5CC5)C4)cc3)ccc12              %              59
12  Cn1ncc2cc(-c3ccc(C4=NC5(CC5)C(=O)N4CC4CN(C(=O)C5CC5)C4)cc3Cl)ccc21              %              74
13  Cn1ncc2cc(-c3ccc(C4=NC5(CCN(S(C)(=O)=O)CC5)C(=O)N4CC4CN(C(=O)C5CC5)C4)cc3)ccc21              %              45
14  Cc1cc(-c2ccc3cc(F)ccc3c2)ccc1C1=NC2(CC2)C(=O)N1C[C@@H]1CCN(C(=O)C2(C)CC2)C1              %             102
15  O=C(C1CC1)N1CC(CN2C(=O)C3(CC3)N=C2c2ccc(-c3cnc4cccnc4c3)cc2)C1              %               6
16  Cn1cc(-c2ccc(-c3ccc(C4=NC5(CC5)C(=O)N4CC4CN(C(=O)C5(O)CC5)C4)c(F)c3)cc2)cn1              %              99
17  Cn1nccc1-c1ccc(C2=NC3(CC3)C(=O)N2CC2CN(C(=O)C3CC3)C2)cc1              %            45.4
18  Cc1cc(-c2ccc(-c3cnn(C4CC4)c3)cc2)ccc1C1=NC2(CC2)C(=O)N1CC1CN(C(=O)C2CC2)C1              %             103
